systemTested: human HDAC1 (Homo sapiens (Human))
Sequence (Q13547 whole entry): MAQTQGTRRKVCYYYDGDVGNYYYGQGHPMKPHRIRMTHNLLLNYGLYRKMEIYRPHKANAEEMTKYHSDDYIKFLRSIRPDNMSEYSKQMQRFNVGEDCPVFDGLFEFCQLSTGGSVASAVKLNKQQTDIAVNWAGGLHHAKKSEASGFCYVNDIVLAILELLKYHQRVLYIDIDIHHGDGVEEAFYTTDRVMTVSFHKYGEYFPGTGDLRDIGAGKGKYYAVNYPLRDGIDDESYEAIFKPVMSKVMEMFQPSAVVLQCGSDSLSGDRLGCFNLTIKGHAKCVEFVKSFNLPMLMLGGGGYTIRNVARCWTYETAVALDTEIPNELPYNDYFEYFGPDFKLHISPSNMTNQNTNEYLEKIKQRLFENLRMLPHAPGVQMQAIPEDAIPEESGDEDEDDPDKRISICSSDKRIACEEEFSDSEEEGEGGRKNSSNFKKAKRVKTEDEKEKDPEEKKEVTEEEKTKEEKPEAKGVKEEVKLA
testDetails: biochemical
measuredAttribute: log10(IC50) (log10 of the value in nM)
Use the decimal logarithm of IC50 (nM).

N[C@@H](CCCCCC(=O)c1ncco1)c1ncc(-c2ccc3ncccc3c2)[nH]1; 0.43
COc1cc2nc(C)ccc2cc1-c1cnc([C@H](CCCCCC(=O)c2ncco2)NC(=O)C2CCN(C)CC2)[nH]1; -0.47
COc1cc2ncccc2cc1-c1c[nH]c([C@@H](N)CCCCCC(=O)c2ccon2)n1; 0.15
COC(=O)N[C@@H](CCCCCC(=O)c1ncco1)c1ncc(-c2cc3ccc(C)nc3cc2OC)[nH]1; 0.30
COc1nc(C2CC2)ccc1-c1c[nH]c([C@@H](N)CCCCCC(=O)c2ncco2)n1; 0.85

Turning now to a further record.
Prompt line: // log10(IC50) lookup, key: CCN1CCC2(CC1)C[C@@H]2C(=O)N[C@@H](CCCCCC(=O)c1ccon1)c1cc(-c2cc3ccc(C)nc3cc2OC)on1
Response line: 0.53

----------
systemTested: human HDAC2 (Homo sapiens (Human))
Sequence (Q92769 whole entry): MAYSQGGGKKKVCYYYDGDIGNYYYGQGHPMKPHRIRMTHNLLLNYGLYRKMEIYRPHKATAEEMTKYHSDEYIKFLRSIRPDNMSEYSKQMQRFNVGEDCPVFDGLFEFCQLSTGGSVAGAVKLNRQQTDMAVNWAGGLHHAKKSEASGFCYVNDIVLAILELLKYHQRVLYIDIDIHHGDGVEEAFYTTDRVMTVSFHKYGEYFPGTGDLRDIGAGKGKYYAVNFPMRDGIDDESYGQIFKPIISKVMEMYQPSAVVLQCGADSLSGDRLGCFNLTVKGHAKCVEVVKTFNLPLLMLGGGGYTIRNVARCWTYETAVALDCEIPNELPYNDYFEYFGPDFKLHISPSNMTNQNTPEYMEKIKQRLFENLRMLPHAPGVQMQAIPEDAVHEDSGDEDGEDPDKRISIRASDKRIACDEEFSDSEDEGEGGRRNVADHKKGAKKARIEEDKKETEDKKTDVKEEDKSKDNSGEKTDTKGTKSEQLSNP
testDetails: HDAC2 inhibition assay (modified FLUOR DE LYS, 384-well)
Format: biochemical
assayConditions: […] enzyme, 40 μM substrate BML-KI104, 3 h pre-incubation; read-out: HDAC2 IC50
measuredAttribute: pIC50
# log scale: pIC50 equals minus log10 of the concentration in mol/L

N[C@@H](CCCCCC(=O)c1ncco1)c1ncc(-c2ccc(C(F)(F)F)cc2F)[nH]1; 7.55
CN1CCC2(CC1)C[C@@H]2C(=O)N[C@@H](CCCCCC(=O)c1ccon1)c1nc(Cl)c(-c2ccc(F)cc2)[nH]1; 9.49
COc1cc2nc(C)ccc2cc1-c1cnc([C@H](CCCCCC(=O)c2ncco2)NC(=O)c2cc3ccccn3n2)[nH]1; 7.89
COc1cc2nc(C)ccc2cc1-c1cnc([C@H](CCCCCC(=O)c2ncco2)NC(=O)C2CCCCO2)[nH]1 (stereo partly drawn); 7.92
Cc1cc(C(=O)CCCCC[C@H](N)c2nc(-c3ccccc3F)c[nH]2)no1; 7.12
COc1nc2ccccc2cc1-c1c[nH]c([C@@H](N)CCCCCC(=O)c2ncco2)n1; 7.74

Prompt line: // pIC50 lookup, key: COc1cc(-c2cnc([C@H](CCCCCC(=O)c3ncco3)NC(=O)C3CN(C)C3)[nH]2)c(F)cn1
Response line: 8.11

Prompt line: // pIC50 lookup, key: Cc1ccc2cc(-c3cnc([C@@H](N)CCCCCC(=O)c4ncco4)[nH]3)c(Cl)cc2n1
Response line: 7.42

Prompt line: // pIC50 lookup, key: CN(C)CC(=O)N[C@@H](CCCCCC(=O)c1ncco1)c1ncc(-c2ccc3c(ccc(=O)n3C)c2)[nH]1
Response line: 8.02

Prompt line: // pIC50 lookup, key: CN(C)C1(C(=O)N[C@@H](CCCCCC(=O)c2ccon2)c2ncc(-c3ccccc3F)[nH]2)CCC1
Response line: 8.68

Prompt line: // pIC50 lookup, key: COc1cc2nc(C)ccc2cc1-c1cnc([C@H](CCCCCC(=O)c2ncco2)NC(=O)CN2CCNCC2=O)[nH]1
Response line: 8.24

----------
systemTested: UniProtKB Q9UBN7
Sequence (Q9UBN7 whole entry): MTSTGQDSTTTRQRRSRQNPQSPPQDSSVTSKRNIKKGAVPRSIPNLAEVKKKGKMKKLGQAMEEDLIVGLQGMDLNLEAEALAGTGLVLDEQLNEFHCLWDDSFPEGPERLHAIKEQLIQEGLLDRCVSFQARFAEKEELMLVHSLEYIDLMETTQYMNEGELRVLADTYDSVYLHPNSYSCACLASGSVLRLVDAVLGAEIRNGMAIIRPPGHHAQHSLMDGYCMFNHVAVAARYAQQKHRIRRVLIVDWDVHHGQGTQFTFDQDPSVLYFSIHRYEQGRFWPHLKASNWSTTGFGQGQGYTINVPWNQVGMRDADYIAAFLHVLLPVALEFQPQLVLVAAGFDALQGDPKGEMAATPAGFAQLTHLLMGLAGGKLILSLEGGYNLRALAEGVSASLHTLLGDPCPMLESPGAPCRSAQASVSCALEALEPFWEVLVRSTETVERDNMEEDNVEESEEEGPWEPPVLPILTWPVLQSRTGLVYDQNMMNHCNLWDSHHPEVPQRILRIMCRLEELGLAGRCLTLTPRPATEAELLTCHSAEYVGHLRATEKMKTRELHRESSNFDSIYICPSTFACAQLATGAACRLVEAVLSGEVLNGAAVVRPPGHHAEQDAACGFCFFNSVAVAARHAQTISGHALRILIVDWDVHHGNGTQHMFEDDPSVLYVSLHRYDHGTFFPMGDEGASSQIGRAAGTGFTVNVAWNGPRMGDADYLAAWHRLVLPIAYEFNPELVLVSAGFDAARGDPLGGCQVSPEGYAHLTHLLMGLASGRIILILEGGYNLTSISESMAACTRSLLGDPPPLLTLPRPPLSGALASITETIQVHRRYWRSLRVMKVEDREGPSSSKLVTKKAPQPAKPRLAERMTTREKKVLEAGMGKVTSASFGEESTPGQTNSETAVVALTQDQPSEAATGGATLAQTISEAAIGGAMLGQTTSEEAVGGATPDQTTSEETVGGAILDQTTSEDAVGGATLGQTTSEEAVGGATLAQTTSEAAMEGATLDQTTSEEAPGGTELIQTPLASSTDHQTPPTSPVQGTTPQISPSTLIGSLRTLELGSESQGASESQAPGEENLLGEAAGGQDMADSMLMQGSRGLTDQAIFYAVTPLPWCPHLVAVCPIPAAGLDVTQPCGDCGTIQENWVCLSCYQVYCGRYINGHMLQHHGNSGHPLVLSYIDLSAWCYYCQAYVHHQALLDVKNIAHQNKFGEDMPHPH
testDetails: biochemical
Listed here are compounds together with their documented IC50.

Some compounds with recorded IC50:
CCn1ccc2cc(-c3c[nH]c([C@@H](N)CCCCCC(=O)c4ncco4)n3)ccc2c1=O; ≥ 45 µM
O=C1CC[C@@](CCCCCC(=O)c2ccon2)(c2nc(-c3ccc(C4CC4)cc3F)c[nH]2)N1; > 0.9 µM
COc1ncccc1-c1c[nH]c([C@@H](N)CCCCCC(=O)c2ccon2)n1; ≥ 45 µM
O=C(CCCCC[C@H](NC(=O)c1cncs1)c1[nH]c(-c2ccc(F)cc2)nc1Cl)c1ncco1; ≥ 45 µM
COc1cc2nc(C)ccc2cc1-c1cnc([C@@]2(CCCCCC(=O)c3ccon3)CCC(=O)N2)[nH]1; > 0.9 µM

Prompt line: // IC50 lookup, key: CN(C)CC(=O)N[C@@H](CCCCCC(=O)c1ncco1)c1[nH]c(-c2ccc(F)cc2)nc1C#N
Response line: ≥ 45 µM

Prompt line: // IC50 lookup, key: Cc1ccc2cc(-c3c[nH]c([C@H](CCCCCC(=O)c4ncco4)NC4CCN(C)CC4)n3)ccc2n1
Response line: ≥ 45 µM

Prompt line: // IC50 lookup, key: COc1ncccc1-c1c[nH]c([C@]2(CCCCCC(=O)c3ccon3)CCCC(=O)N2)n1
Response line: > 0.9 µM

----------
systemTested: human HDAC8 (Homo sapiens (Human), UniProt Q9BY41)
Sequence (Q9BY41 whole entry): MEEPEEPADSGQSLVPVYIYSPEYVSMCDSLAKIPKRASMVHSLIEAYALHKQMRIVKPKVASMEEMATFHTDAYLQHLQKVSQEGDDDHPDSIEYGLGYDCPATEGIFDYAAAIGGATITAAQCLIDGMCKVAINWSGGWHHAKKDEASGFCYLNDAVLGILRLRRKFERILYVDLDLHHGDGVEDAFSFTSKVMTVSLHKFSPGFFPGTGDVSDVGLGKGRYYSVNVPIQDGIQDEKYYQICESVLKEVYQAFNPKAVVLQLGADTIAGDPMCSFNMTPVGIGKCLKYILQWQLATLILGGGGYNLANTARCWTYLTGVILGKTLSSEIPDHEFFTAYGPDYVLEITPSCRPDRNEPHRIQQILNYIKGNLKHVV
testDetails: HDAC8 inhibition assay (modified FLUOR DE LYS, 384-well)
Format: biochemical
assayConditions: […] enzyme, 200 μM substrate BML-KI178, 3 h pre-incubation; read-out: HDAC8 IC50
Listed here are compounds together with their documented IC50.

Some compounds with recorded IC50:
COc1ccc(-c2cnc([C@@H](N)CCCCCC(=O)c3ncco3)[nH]2)c(F)c1 [Example 140]; > 900 nM
N[C@@H](CCCCCC(=O)c1ncco1)c1ncc(-c2ccc(OC(F)(F)F)cc2F)[nH]1 [Example 141]; > 900 nM

Turning now to a further record.
Prompt line: // IC50 lookup, key: N[C@@H](CCCCCC(=O)c1ncco1)c1ncc(-c2cnc(C3CC3)cn2)[nH]1 [Example 131]
Response line: > 900 nM

----------
systemTested: human HDAC1 (Homo sapiens (Human))
pIC50: −log10 of the molar value.
Each entry gets false if its pIC50 stays under 9, and true if its pIC50 is 9 or above.

Cc1ccc2cc(-c3cnc([C@@H](N)CCCCCC(=O)c4ncco4)[nH]3)c(Cl)cc2n1; false
COc1cc2nc(C)ccc2cc1-c1cnc([C@H](CCCCCC(=O)c2ncco2)NC(=O)C2CCCCO2)[nH]1 (stereo partly shown); false
COc1cc2nc(C)ccc2cc1-c1cnc([C@H](CCCCCC(=O)c2ncco2)NC(=O)[C@H]2CC23CCN(C)CC3)o1; true
N[C@H](CCCCCC(=O)c1ccon1)c1cc(-c2ccc(F)cc2)on1; false
COc1cc2c(ccc(=O)n2C)cc1-c1cnc([C@H](CCCCCC(=O)c2ccon2)NC(=O)C2CN(C)C2)[nH]1; true
COc1cc2nc(C)ccc2cc1-c1cnc([C@H](CCCCCC(=O)c2ncco2)NC(=O)c2cc3n(n2)CCS(=O)(=O)C3)[nH]1; false
COc1cc2nc(C)ccc2cc1-c1cnc([C@H](CCCCCC(=O)c2ncco2)NC(=O)C2(C)CCCCO2)[nH]1 (stereo partly shown); false
CN[C@@H](CCCCCC(=O)c1ncco1)c1ncc(-c2ccc3nc(C)ccc3c2)[nH]1; false

Prompt line: Is the recorded value of pIC50 equal to or greater than 9 for this compound? CN1CCC2(CC1)C[C@@H]2C(=O)N[C@@H](CCCCCC(=O)c1ccon1)c1nc(Cl)c(-c2ccc(F)cc2)[nH]1
Response line: true

Prompt line: Is the recorded value of pIC50 equal to or greater than 9 for this compound? N[C@@H](CCCCCC(=O)c1ncco1)c1ncc(-c2cccc(F)c2F)[nH]1
Response line: false

Prompt line: Is the recorded value of pIC50 equal to or greater than 9 for this compound? N[C@@H](CCCCCC(=O)c1ncco1)c1ncc(-c2ccc3nc(N4CCCC4)ccc3c2)[nH]1
Response line: false

Prompt line: Is the recorded value of pIC50 equal to or greater than 9 for this compound? COc1nc2ccccc2cc1-c1c[nH]c([C@@H](N)CCCCCC(=O)c2ncco2)n1
Response line: false

Prompt line: Is the recorded value of pIC50 equal to or greater than 9 for this compound? N[C@@H](CCCCCC(=O)c1ncco1)c1ncc(-c2cc(C(F)(F)F)ccc2F)[nH]1
Response line: false

----------
Test system: KARN cells (Jurkat 2C4)
testDetails: cells
assayConditions: Homo sapiens, read-out: Karn EC50 nM 5% NHS
Listed here are molecules together with their documented EC50.
Respond with the bare value in nM.

Some molecules with recorded EC50:
Cc1ccc2cc(-c3c[nH]c([C@H](CCCCCC(=O)c4ncco4)NC4CCN(C)CC4)n3)ccc2n1; 620
Cc1ccc2cc(-c3c[nH]c([C@H](CCCCCC(=O)c4ncco4)NCc4ccccc4)n3)ccc2n1; 690
Cc1ccc2cc(-c3c[nH]c([C@H](CCCCCC(=O)c4ncco4)NC4CCOCC4)n3)ccc2n1; 1300

Turning now to a further record.
Prompt line: // EC50 lookup, key: COc1cc2nc(C)ccc2cc1-c1cnc([C@H](CCCCCC(=O)c2ncco2)NC(=O)C2CCN(C)CC2)[nH]1
Response line: 170

----------
Listed here are compounds together with their documented IC50.
systemTested: UniProt Q9UBN7
testDetails: biochemical

Prompt line: // IC50 lookup, key: CCN1CCC2(CC1)C[C@@H]2C(=O)N[C@@H](CCCCCC(=O)c1ccon1)c1cc(-c2cc3ccc(C)nc3cc2OC)on1
Response line: > 900 nM

Prompt line: // IC50 lookup, key: N[C@@H](CCCCCC(=O)c1cocn1)c1ncc(-c2ccccc2F)[nH]1
Response line: > 900 nM

Prompt line: // IC50 lookup, key: COc1ncccc1-c1cnc(C(CCCCCC(=O)c2ncco2)NC(=O)[C@H]2CC23CCN(C)CC3)o1 (stereo partly drawn)
Response line: > 900 nM
